Test system: K4 kissing-loop RNA reporter;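 also: bound reporter read as fluorescence of individual clusters on recovered sequencing chips by microscopy, with normalized cluster intensities fitted with a binding model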
test_name: apparent KD of K4 kissing-loop reporter; higher = weaker reporter binding
condition_details: Eterna round: R107; input ligand: theophylline 20 uM
Catalogue of apparent KD of K4 kissing-loop reporter values
Hi, when you answer, please include the unit after the number. Thanks!

The cases that follow already have their apparent KD of K4 kissing-loop reporter on record.
[
  {
    "residue_sequence": "UGAUAGGACAGAAGGAGCGGUAGUGAUGUUACCAAAAGGGUAAGGUGUCAAAAGACACCCUGCCAGGUAGGUCGCUGUCCUAUCU",
    "result": "83.4 nM"
  },
  {
    "residue_sequence": "GUUACGCAUGGAAGGAGCGCUCUCAGGCUUAAUAACACAGUGAUGUUGUGAAUUUGCCUAAAGCAGGUAGGUCGCCAUGUGUAAC [Ex Arginine B K4 9]",
    "result": "423 nM"
  },
  {
    "residue_sequence": "GUCCAACCUGGAGGAUAUCUGCUGUCCAGUGAUGUUGGACACCUUAGUAAAGGCCGGGUAGCCCGCAGAGAAGGCCGGAGUUGCC [Isateron]",
    "result": "390 nM"
  },
  {
    "residue_sequence": "GCAGUGAUGUUGCGAAUCGGCCAUGAUACAGAGGAUAUCGUGCCUUCGAGAAGGUUGUAUAGAGGAUACGAUAUUAUAAAUGACG [Same State FMN A GF 1]",
    "result": "436 nM"
  },
  {
    "residue_sequence": "AAUAAAAUCACGGCCGCCACUGAUACUAAUAUUAGCAGUGAUGUUGCUAUGUAUAAUUUAUUAAACAGGACCGGGUGAAUAUUUA [JR_ExcTryptoB_Sub015]",
    "result": "150 nM"
  },
  {
    "residue_sequence": "AGUCCACUCUAAAGAGUGGACCUAAGGGAUACCAGUGAUGUUGGUCACCCUUGGCAGCCCUCUGUCAUCGAUAAAGAUGGCAGUA",
    "result": "130 nM"
  },
  {
    "residue_sequence": "AGUGAUGUGGGAAGGAGCGCUAUAAGACUUCAGUGAUGUUGAAGUGCUGGUUUAGUGUUGUAGCAGGUAGGUCGCCUAGAUGUUA [KL-XARG-B11]",
    "result": "196 nM"
  },
  {
    "residue_sequence": "CGAUAUAAGAAUAUAUAUCUCUAUUCAGAAGGAGCGUGUUUGUACACAGGUAGGUCGCUGAAAUUUAAACUAGUGAUGUUAGACU [JR_SSArginiA_Sub002]",
    "result": "1000 nM"
  },
  {
    "residue_sequence": "AAGUGUGUGGCGGCCGCCACUAGAAUCCAGUGAUGUUGGAGAUAUCACGUAAGUGAUAUCCAUCAUAGGACCGGGCCAUAUAGAA [Same State - Tryptophan B (Freestyle 18)]",
    "result": "1280 nM"
  },
  {
    "residue_sequence": "AAACAUCACUGGGAGUGAUGUUCUCAGUGACGAGGACCGGUACGGCCGCCACUCGCGAGAGAUAUAGAUGAGUAAUGACAUCAUU [Excl Tryptophan A V3]",
    "result": "274 nM"
  }
]

Kindly note the recorded apparent KD of K4 kissing-loop reporter for AUUUGUUUAUGUGAUACCAGACUUUGCAGUGAUGUUGCUUUUAUUUUUGAAUUUUAAAUAGUCCCUUGGCAGCACUAUGUAUUUA [JR_SSTheophyB_Sub009] , which is 137 nM

Form: sequence = AACUCUCAGGCAGCCGAGUGAUGUUCGGCCCGAGGACCGGUACGGCCGCCACUCGGGCCUGAGAGAGGUUAUCAAAGAUAGCCAA [#01 K4 Tryptophan A Same State] ; apparent KD of K4 kissing-loop reporter = 142 nM

Item: GGAUCCACCAGUGAUGUUGGAGAAAACUCUAAGGAUAUGACGAAAGUCAGAAGGUGGUAGACUGGUCAAAGUCCGGUCGGAUCCA [FmnA10 U30+U66] | apparent KD of K4 kissing-loop reporter: 756 nM

src = the supplement of paper PMC9170038
